All figures here come from paper PMC7278979.

# System Tested: CDK6 (Homo sapiens, UniProt Q00534)
# Construct: The 981-bp coding region (326 amino acids) was amplified by PCR from plasmid pcDNA containing the CDK6 gene; His-tag; made in house; host or cells: E. coli BL21 (codon+), pET28a+ (NcoI/XhoI)
# Sequence (Q00534 whole entry): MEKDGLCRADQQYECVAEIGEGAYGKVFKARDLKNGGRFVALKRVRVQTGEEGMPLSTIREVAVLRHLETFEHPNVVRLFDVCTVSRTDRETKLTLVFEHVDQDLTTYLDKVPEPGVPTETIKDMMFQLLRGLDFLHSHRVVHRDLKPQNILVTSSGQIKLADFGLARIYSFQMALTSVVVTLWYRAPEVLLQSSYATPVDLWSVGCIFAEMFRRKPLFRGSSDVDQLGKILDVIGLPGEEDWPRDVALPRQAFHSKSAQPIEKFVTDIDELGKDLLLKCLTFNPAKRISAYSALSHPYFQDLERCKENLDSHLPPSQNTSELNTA
# Protocol Text: Fluorescence binding (quenching) study with recombinant CDK6
# Measurement Conditions: fluorescence quenching, modified Stern-Volmer; 303 K; read-out: binding constant (K)
Measured Quantity: Kd

Query Smiles | Measured Quantity | Assay Value
O=c1oc2c(O)c(O)cc3c(=O)oc4c(O)c(O)cc1c4c23 | Kd | 100 nM

====

# System Tested: CDK6 (Homo sapiens, UniProt Q00534)
Measured Quantity: IC50 (µM)

Query Smiles | Measured Quantity | Assay Value
O=c1oc2c(O)c(O)cc3c(=O)oc4c(O)c(O)cc1c4c23 | IC50 | 3.05
